In this section, each of the compounds is paired with its reported TGI.
- Tested on: CCRF-CEM leukemia
- Assay Comment: NCI tumour cell line growth inhibition, 48 h
Parameter Measured: TGI

Compound | Experimental System | Parameter Measured | Measured
O=c1cnn(CCOCP(=O)(O)O)c(=O)[nH]1 | CCRF-CEM leukemia | TGI | > 100 µM
CN(C)/N=C1\CC(c2ccccc2)C(C#N)(C#N)C1(C#N)C#N (centres undefined) | CCRF-CEM leukemia | TGI | > 100 µM
COc1cc(C2c3cc4c(cc3OC(N3CCNCC3)C2C)OCO4)cc(OC)c1OC (centres undefined) | CCRF-CEM leukemia | TGI | 17.7 µM
CC[n+]1c(/C=C/C=C2\N(C)c3ccccc3C2(C)C)sc2ccccc21 | CCRF-CEM leukemia | TGI | 18.1 µM
C[N+]1(CCN[N+]2(C)CCCCC2)CCc2ccccc2C1 (centres undefined) | CCRF-CEM leukemia | TGI | > 100 µM
CC1=NC(=Cc2ccc([N+](=O)[O-])cc2)C(=O)N1n1c(-c2ccccc2)nc2ccccc2c1=O | CCRF-CEM leukemia | TGI | > 100 µM
O=C(CCc1ccccc1)On1c(-c2ccccc2)nc2ccccc2c1=S | CCRF-CEM leukemia | TGI | > 100 µM
COc1cc(N(Cc2ccc3oc(=O)c(-c4ccccc4)nc3c2)Cc2ccc3oc(=O)c(-c4ccccc4)nc3c2)cc(OC)c1OC | CCRF-CEM leukemia | TGI | > 10 µM
CC(=O)C1=C(O)C2C3c4c[nH]c5cccc(c45)CC3C(C)(C)N2C1=O (centres undefined) | CCRF-CEM leukemia | TGI | > 100 µM
CN(CC(=O)N(Cc1ccc(C2CCCCC2)cc1)c1ccc(C(=O)O)cc1)S(=O)(=O)c1c(F)c(F)c(F)c(F)c1F | CCRF-CEM leukemia | TGI | 6.81 µM
C[C@@H]1S[C@H](c2c(Cl)cccc2Cl)N2Cc3ccccc3N=C12 | CCRF-CEM leukemia | TGI | > 100 µM
CC(SC(=O)Nc1ccc(N=Nc2ccccc2)cc1)C(=O)O (centres undefined) | CCRF-CEM leukemia | TGI | > 100 µM
C/C1=C\C=C(\C(C)C)CC/C(C(=O)O)=C\CC/C(C)=C/CC1 | CCRF-CEM leukemia | TGI | 41.8 µM
CN(Cc1cnc2nc(N)nc(N)c2n1)c1ccc(C(=O)NC(CCC(=O)O)C(=O)O)cc1Br (centres undefined) | CCRF-CEM leukemia | TGI | > 44.5 µM
CCOC(=O)Cc1nc2c(N)ncnc2n1C1OC(COC(C)=O)C(OC(C)=O)C1OC(C)=O (centres undefined) | CCRF-CEM leukemia | TGI | > 100 µM
CC(=N\N)/C(C)=N/N=C(C)/C(C)=N/N=C(C)/C(C)=N/N | CCRF-CEM leukemia | TGI | > 100 µM
O=C(NNc1nc(-c2ccccc2)cs1)C(F)(F)F | CCRF-CEM leukemia | TGI | > 100 µM
Cc1ccc(S(=O)(=O)N/N=C(/c2nc3ccc([N+](=O)[O-])cc3[nH]c2=O)C(O)c2ccc(C(O)/C(=N\NS(=O)(=O)c3ccc(C)cc3)c3nc4ccc([N+](=O)[O-])cc4[nH]c3=O)cc2)cc1 (centres undefined) | CCRF-CEM leukemia | TGI | > 100 µM
NC(=O)NC1C(C(N)=O)N(Cc2ccccc2)C(=O)N1Cc1ccccc1 (centres undefined) | CCRF-CEM leukemia | TGI | > 100 µM
